Values from patent US10316032B2

assay: Solubility estimates at ambient temperature (solvent aliquot addition, visual); type: physicochemical; details: thermodynamic from solid, Water
OBSERVED_PROPERTY: solubility

Lookup: Give the measured solubility of O=C(c1c(F)ccc(NS(=O)(=O)N2CC[C@@H](F)C2)c1F)c1c[nH]c2ncc(-c3cnc(C4CC4)nc3)cc12 [Compound I Form B] .
Found: < 1000 µg/mL

* * *

assay: Solubility estimates at ambient temperature (solvent aliquot addition, visual); format: physicochemical; details: organic solvent or mixture, thermodynamic from solid, DMSO
OBSERVED_PROPERTY: solubility

Lookup: Give the measured solubility of O=C(c1c(F)ccc(NS(=O)(=O)N2CC[C@@H](F)C2)c1F)c1c[nH]c2ncc(-c3cnc(C4CC4)nc3)cc12 [Compound I Form B] .
Found: > 84 mg/mL

* * *

assay: Solubility estimates at ambient temperature (solvent aliquot addition, visual); assay type: physicochemical; conditions: organic solvent or mixture, thermodynamic from solid, EtOAc
OBSERVED_PROPERTY: solubility

Lookup: Give the measured solubility of O=C(c1c(F)ccc(NS(=O)(=O)N2CC[C@@H](F)C2)c1F)c1c[nH]c2ncc(-c3cnc(C4CC4)nc3)cc12 [Compound I Form B] .
Found: ~5000 µg/mL

* * *

assay: Solubility estimates at ambient temperature (solvent aliquot addition, visual); format: physicochemical; details: organic solvent or mixture, thermodynamic from solid, t-BuOH
OBSERVED_PROPERTY: solubility

Lookup: Give the measured solubility of O=C(c1c(F)ccc(NS(=O)(=O)N2CC[C@@H](F)C2)c1F)c1c[nH]c2ncc(-c3cnc(C4CC4)nc3)cc12 [Compound I Form B] .
Found: < 2000 µg/mL

* * *

experiment: Solubility estimates at ambient temperature (solvent aliquot addition, visual); format: physicochemical; settings: organic solvent or mixture, thermodynamic from solid, MeOH
OBSERVED_PROPERTY: solubility

Lookup: Give the measured solubility of O=C(c1c(F)ccc(NS(=O)(=O)N2CC[C@@H](F)C2)c1F)c1c[nH]c2ncc(-c3cnc(C4CC4)nc3)cc12 [Compound I Form B] .
Found: ~4000 µg/mL

* * *

biological target: B-Raf V600E kinase (Homo sapiens, UniProt P15056, V600E); experiment: B-Raf V600E kinase inhibition
Sequence (P15056 whole entry V600E): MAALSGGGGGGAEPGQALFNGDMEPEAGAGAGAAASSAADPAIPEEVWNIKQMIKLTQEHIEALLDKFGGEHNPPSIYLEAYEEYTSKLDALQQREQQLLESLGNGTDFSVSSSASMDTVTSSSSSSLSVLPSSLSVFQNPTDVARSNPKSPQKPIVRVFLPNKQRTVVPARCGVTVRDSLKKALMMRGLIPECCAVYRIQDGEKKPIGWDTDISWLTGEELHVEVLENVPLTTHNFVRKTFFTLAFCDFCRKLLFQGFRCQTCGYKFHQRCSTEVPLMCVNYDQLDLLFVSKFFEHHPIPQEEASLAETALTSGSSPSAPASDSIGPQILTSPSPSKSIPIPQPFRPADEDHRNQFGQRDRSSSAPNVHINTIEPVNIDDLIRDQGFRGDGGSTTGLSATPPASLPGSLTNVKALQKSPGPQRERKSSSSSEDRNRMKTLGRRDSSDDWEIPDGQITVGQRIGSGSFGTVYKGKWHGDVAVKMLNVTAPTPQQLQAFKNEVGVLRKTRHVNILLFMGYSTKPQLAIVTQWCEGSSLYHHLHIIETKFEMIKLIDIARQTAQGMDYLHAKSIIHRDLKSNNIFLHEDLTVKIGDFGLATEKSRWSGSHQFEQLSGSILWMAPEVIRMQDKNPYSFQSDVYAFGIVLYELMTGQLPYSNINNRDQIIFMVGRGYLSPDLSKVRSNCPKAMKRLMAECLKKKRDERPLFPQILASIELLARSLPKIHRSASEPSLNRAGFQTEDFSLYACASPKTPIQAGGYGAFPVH
OBSERVED_PROPERTY: IC50

Lookup: Give the measured IC50 of O=C(c1c(F)ccc(NS(=O)(=O)N2CC[C@@H](F)C2)c1F)c1c[nH]c2ncc(-c3cnc(C4CC4)nc3)cc12 [Compound I] .
Found: < 100 nM

* * *

experiment: Solubility estimates at ambient temperature (solvent aliquot addition, visual); assay type: physicochemical; conditions: organic solvent or mixture, thermodynamic from solid, DCM
OBSERVED_PROPERTY: solubility

Lookup: Give the measured solubility of O=C(c1c(F)ccc(NS(=O)(=O)N2CC[C@@H](F)C2)c1F)c1c[nH]c2ncc(-c3cnc(C4CC4)nc3)cc12 [Compound I Form B] .
Found: < 1000 µg/mL

* * *

assay: Solubility estimates at ambient temperature (solvent aliquot addition, visual); format: physicochemical; conditions: organic solvent or mixture, thermodynamic from solid, Dioxane
OBSERVED_PROPERTY: solubility

Lookup: Give the measured solubility of O=C(c1c(F)ccc(NS(=O)(=O)N2CC[C@@H](F)C2)c1F)c1c[nH]c2ncc(-c3cnc(C4CC4)nc3)cc12 [Compound I Form B] .
Found: > 103 mg/mL

* * *

Test: Solubility estimates at ambient temperature (solvent aliquot addition, visual)
Type: physicochemical
Settings: organic solvent or mixture, thermodynamic from solid, MTBE
Method: Aliquots of various solvents were added to measured amounts of Compound I with agitation (typically sonication) at ambient temperature until complete dissolution was achieved, as judged by visual observation. Solubilities were calculated based on the total solvent used to give a solution; actual solubilities may be greater because of the volume of solvent portions utilized or a slow rate of dissolution. […] If dissolution occurred at the first aliquot the value was reported as “>”.
OBSERVED_PROPERTY: solubility

Lookup: Give the measured solubility of O=C(c1c(F)ccc(NS(=O)(=O)N2CC[C@@H](F)C2)c1F)c1c[nH]c2ncc(-c3cnc(C4CC4)nc3)cc12 [Compound I Form B] .
Found: < 2000 µg/mL

* * *

Test: Solubility estimates at ambient temperature (solvent aliquot addition, visual)
Format: physicochemical
Conditions: organic solvent or mixture, thermodynamic from solid, THF
Experimental: Aliquots of various solvents were added to measured amounts of Compound I with agitation (typically sonication) at ambient temperature until complete dissolution was achieved, as judged by visual observation. Solubilities were calculated based on the total solvent used to give a solution; actual solubilities may be greater because of the volume of solvent portions utilized or a slow rate of dissolution. […] If dissolution occurred at the first aliquot the value was reported as “>”.
OBSERVED_PROPERTY: solubility

Lookup: Give the measured solubility of O=C(c1c(F)ccc(NS(=O)(=O)N2CC[C@@H](F)C2)c1F)c1c[nH]c2ncc(-c3cnc(C4CC4)nc3)cc12 [Compound I Form B] .
Found: > 102 mg/mL

* * *

Assay: Solubility estimates at ambient temperature (solvent aliquot addition, visual)
Format: physicochemical
Details: organic solvent or mixture, thermodynamic from solid, EtOH
Experimental: Aliquots of various solvents were added to measured amounts of Compound I with agitation (typically sonication) at ambient temperature until complete dissolution was achieved, as judged by visual observation. Solubilities were calculated based on the total solvent used to give a solution; actual solubilities may be greater because of the volume of solvent portions utilized or a slow rate of dissolution. […] If dissolution occurred at the first aliquot the value was reported as “>”.
OBSERVED_PROPERTY: solubility

Lookup: Give the measured solubility of O=C(c1c(F)ccc(NS(=O)(=O)N2CC[C@@H](F)C2)c1F)c1c[nH]c2ncc(-c3cnc(C4CC4)nc3)cc12 [Compound I Form B] .
Found: ~1000 µg/mL

* * *

experiment: Solubility estimates at ambient temperature (solvent aliquot addition, visual); format: physicochemical; conditions: organic solvent or mixture, thermodynamic from solid, DMF
OBSERVED_PROPERTY: solubility

Lookup: Give the measured solubility of O=C(c1c(F)ccc(NS(=O)(=O)N2CC[C@@H](F)C2)c1F)c1c[nH]c2ncc(-c3cnc(C4CC4)nc3)cc12 [Compound I Form B] .
Found: > 97 mg/mL

* * *

test: Solubility estimates at ambient temperature (solvent aliquot addition, visual); assay type: physicochemical; details: organic solvent or mixture, thermodynamic from solid, Acetone
OBSERVED_PROPERTY: solubility

Lookup: Give the measured solubility of O=C(c1c(F)ccc(NS(=O)(=O)N2CC[C@@H](F)C2)c1F)c1c[nH]c2ncc(-c3cnc(C4CC4)nc3)cc12 [Compound I Form B] .
Found: ~36 mg/mL
